Reference source: patent US20210032365A1

target_or_test_system: T1, human C1s (human, UniProt P09871 16-688)
T1 construct: Analyte in the Biacore assays; also called hC1s; serum-derived human C1s (CompTech)
T1 sequence: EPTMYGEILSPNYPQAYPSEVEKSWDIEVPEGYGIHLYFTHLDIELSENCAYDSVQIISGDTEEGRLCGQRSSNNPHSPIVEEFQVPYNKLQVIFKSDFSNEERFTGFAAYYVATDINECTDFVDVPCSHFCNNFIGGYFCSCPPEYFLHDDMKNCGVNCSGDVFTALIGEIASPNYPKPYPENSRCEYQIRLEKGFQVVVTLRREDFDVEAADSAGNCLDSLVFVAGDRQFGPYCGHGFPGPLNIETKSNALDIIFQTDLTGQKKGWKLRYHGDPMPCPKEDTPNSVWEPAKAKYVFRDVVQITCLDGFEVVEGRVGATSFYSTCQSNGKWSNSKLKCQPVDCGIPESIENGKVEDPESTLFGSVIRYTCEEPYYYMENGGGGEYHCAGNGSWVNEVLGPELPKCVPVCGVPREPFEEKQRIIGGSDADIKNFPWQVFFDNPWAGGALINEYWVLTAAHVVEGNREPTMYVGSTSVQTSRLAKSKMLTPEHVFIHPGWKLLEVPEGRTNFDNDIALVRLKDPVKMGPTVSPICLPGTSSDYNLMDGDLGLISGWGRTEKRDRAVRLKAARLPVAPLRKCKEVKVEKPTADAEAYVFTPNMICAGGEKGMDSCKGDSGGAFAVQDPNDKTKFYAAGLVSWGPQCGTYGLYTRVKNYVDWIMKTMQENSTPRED
assay_name: SPR (Biacore T200, 37C), Ab captured on protein A/G; pH 5.8, 1.2 mM Ca
property_name: kon (M⁻¹ s⁻¹)
One number for each entry, in M⁻¹ s⁻¹.

C1_IPN92H0282-SG4GK/IPN93L0024-SK1 (antibody, human IgG4 S228P, kappa, name in Kabat numbering, V domains shown, Substitutions from IPN009VH2, Kabat numbering; also called IPN92H0282/IPN93L0024) VH: EVMLVESGGGLVKPGGSLRLSCAASGFTFSNYAMSWVRQAPGKGLEWVATISSGGSHTYELDSVDERFTISRDNSKDTLYLQMNSLRAEDTALYYCARLFTKHAMDYWGQGTLVTVSS VL: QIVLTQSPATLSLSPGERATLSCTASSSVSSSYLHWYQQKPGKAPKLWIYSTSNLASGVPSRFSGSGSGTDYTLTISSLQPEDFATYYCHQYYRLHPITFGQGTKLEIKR
553000

Data request: // query kon value for entry C1_IPN92H0188-SG4GK/IPN93L0024-SK1 (antibody, human IgG4 S228P, kappa, name in Kabat numbering, V domains shown, Substitutions from IPN009VH2, Kabat numbering; also called IPN92H0188/IPN93L0024) VH: EVMLVESGGGLVKPGGSLRLSCAASGFTFSNYAMSWVRQAPGKGLEWVATISSGGSHTYYLDSVDGRFTISRDNSKDTLYLQMNSLRAEDTALYYCARLFTGHAMDYWGQGTLVTVSS VL: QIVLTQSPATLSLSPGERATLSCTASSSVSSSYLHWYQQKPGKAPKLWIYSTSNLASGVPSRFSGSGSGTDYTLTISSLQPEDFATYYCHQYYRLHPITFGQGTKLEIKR
Data returned: 504000
